- Measurement description: folding enthalpy; higher = less favourable; fluorescence melt of hairpins on a sequencing array, two-state fit
- Condition set: sodium 0.088 M
Readout type: folding enthalpy (kcal/mol)
Numbers only, in kcal/mol.

Examples from the recorded data:
Sequence content | folding enthalpy, kcal/mol
GCAATAGGAAACTATCGC ((.((((....)))).)) | -18.6
GGAATAGAAATATTCC ((((((....)))))) | -29.3
GATCTTTCCTAAGATC ((((((....)))))) | -34.2
GTCCTGGGAAACCAGGAC (((((((....))))))) | -36
GCAGTAGGAAACTACTAC (.(((((....))))).) | -17.2

Consider the following items and state reported folding enthalpy for each.
1. GATCGCTCGCGCGATC ((((((....))))))
2. GATCCCTCCGGGATC ((((((...))))))
3. GATCCCTGGGGGGATC ((((((....))))))
4. GCGGAACCGAAAGGTCGC (((..(((....))))))
5. GCAAGCGAAAGCTTCTGC ((((((....)))..)))
6. GATCACAGCCGTGATC ((((((....))))))
7. GCGACGCGAAAGCCTTGC ((.(.((....)).).))

1. -31.7
2. -44.2
3. -37.2
4. -27.7
5. -11.5
6. -44.6
7. -12

----------
- Measurement description: melting temperature; fluorescence melt of hairpins on a sequencing array, two-state fit, raised by 9.35 °C to match UV melts
- Condition set: sodium 0.088 M
# note: boundary value 50 °C maps to No; Tm below it maps to Yes

Known results for sequences:
Sequence content | Label value
GGGAGCGCGAAAGCGCCC (((..(((....)))))) | No
ATGTAGAAATACAT (((((....))))) | Yes
GACTCACGAAAGTGTGTC (((.(((....))).))) | No
GGAAGGTCGAAAGACTCC (((..(((....)))))) | Yes

Please determine if GGGTGGCCGAAAGGCCCC (((..(((....)))))) is below 50 °C in terms of Tm.
No

Dear reviewer, please state whether CGAGCGGAAACGCCATCG ((((((....)))..))) has Tm strictly beneath 50 °C.
Yes

----------
- Measurement description: folding enthalpy; higher = less favourable; fluorescence melt of hairpins on a sequencing array, two-state fit
- Condition set: sodium 0.088 M
Kindly supply the reported folding enthalpy values for the records listed here.
One number for each entry, in kcal/mol.

Sequence content | folding enthalpy (kcal/mol)
GAGTGAGGAAACTCGTTC ((..(((....)))..)) | -11.8
GCGGCGCGAAAGCTCGGC ((.(.((....)).).)) | -17.4
GGTTATGGAAACGTAACC (((((.(....).))))) | -40.6
GATCGTTTCGACGATC ((((((....)))))) | -43.1
GAAGTCGGAAACGGCTTC ((((.((....)).)))) | -39.7
GATTGCGAAAGCAATATC ((((((....)))..))) | -13.1
GATGCGGGAAACCGCACC (.(((((....))))).) | -11.3
GATCTATAGTTAGATC ((((((....)))))) | -27.1
GATCGACGATTCGATC ((((((....)))))) | -37.1
GATCCCACTGGGGATC ((((((....)))))) | -30.7

Dear colleague, could you please provide folding enthalpy for the sequences listed below?
1. GATAACGGAAACGTCATC (((.(((....))).)))
2. GAGACGAAAGTCTC (((((....)))))

[-19.3, -23.1]
